Biological target: human CXCR6 receptor (Homo sapiens)
Sequence (O00574 whole entry): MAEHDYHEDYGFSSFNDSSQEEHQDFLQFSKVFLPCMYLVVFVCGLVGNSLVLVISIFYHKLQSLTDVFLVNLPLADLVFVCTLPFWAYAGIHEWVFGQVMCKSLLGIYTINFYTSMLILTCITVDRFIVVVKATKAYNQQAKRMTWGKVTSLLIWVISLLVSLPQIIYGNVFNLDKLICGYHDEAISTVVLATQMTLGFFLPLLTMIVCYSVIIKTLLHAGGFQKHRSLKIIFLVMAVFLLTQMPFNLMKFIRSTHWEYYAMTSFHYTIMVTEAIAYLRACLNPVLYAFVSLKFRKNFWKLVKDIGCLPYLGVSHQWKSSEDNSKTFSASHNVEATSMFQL
Quantity Kind: pEC50
# pEC50 = -log10(concentration in molar units)

What value of measured pEC50 is listed for COc1cc(C(=O)N[C@@H]2C[C@H]3CCC[C@@H](C2)N3Cc2nc3c(C(F)(F)F)cccc3s2)cc(OC)c1OC [Compound 81] ?
7.40

Source listed as paper PMC8011643.
